Data provenance: PubChem BioAssay (Tox21)

Test: qHTS assay to identify small molecule agonists of H2AX - cell viability counter screen (AID 1224847); also: nearly all actives have a fitted effect of over 30% in size
Settings: CHO-K1 viability, CellTiter-Glo luminescence, 3 h; series mostly up to 154 µM
Results filed as inconclusive are left out. Activity calls are given as the source filed them. Calls follow the shape of the full dose curve.
Select the correct class. Options are class 1 (active), class 0 (inactive) and nothing else.

Known results for compounds:
- COc1ccc(-c2coc3cc(O)cc(O)c3c2=O)cc1: class 1
- Cc1ccc(S(=O)(=O)NCl)cc1: class 0
- COCCOCCOCCO: class 0
- NCCS(=O)(=O)O: class 0
- CC[C@]12CCCN3CCc4c(n(c5ccccc45)[C@@](O)(C(=O)OC)C1)[C@@H]32: class 0
- C=C1C[C@H]2[C@@H]3C=C(C)C4=CC(=O)CC[C@]4(C)[C@H]3CC[C@]2(C)[C@@]1(OC(C)=O)C(C)=O: class 0
- Cc1ccc([N+](=O)[O-])c(C)c1: class 0

Hi team, can someone confirm the assay call for "OCCNCCO" ?
class 0

----------
Molecular target: Nuclear receptor subfamily 1 group I member 3 (Homo sapiens) (UniProt Q14994)
Sequence (Q14994 whole entry, looked up): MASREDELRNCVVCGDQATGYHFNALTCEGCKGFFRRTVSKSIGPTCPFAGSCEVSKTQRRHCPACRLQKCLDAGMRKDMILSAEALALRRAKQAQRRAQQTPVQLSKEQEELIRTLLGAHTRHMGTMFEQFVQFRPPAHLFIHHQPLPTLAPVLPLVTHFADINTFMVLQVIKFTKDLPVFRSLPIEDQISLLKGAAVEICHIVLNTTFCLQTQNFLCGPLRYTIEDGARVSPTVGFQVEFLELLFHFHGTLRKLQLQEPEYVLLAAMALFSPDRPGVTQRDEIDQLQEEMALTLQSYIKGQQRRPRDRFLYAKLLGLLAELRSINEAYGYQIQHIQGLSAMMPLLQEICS
Experiment: qHTS assay to identify small molecule agonists of the constitutive androstane receptor (CAR) signaling pathway (AID 1224839); also: nearly all actives have a fitted effect of over 15% in size;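 as to activation: HepG2 cells stably carrying human CAR and a CYP2B6 luciferase reporter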
Settings: HepG2 hCAR CYP2B6-luciferase, agonist mode, 24 h; series mostly up to 92.4 µM
Records with an inconclusive call do not appear. The source made the active and inactive calls. The call rests on the fitted dose curve; in most records, active means well fitted activation curve with a large enough effect in the repeat runs; inconclusive means weak or mixed curves; inactive means no such curve, though single readings can be large or run the other way.
Select the correct class. Options are 1.0 = active, 0.0 = inactive and nothing else.

Known results for molecules:
* CCCCCC=O | 0.0
* Brc1nc2ccccc2s1 | 0.0
* C=C1C[C@H]2[C@@H]3C=C(C)C4=CC(=O)CC[C@]4(C)[C@H]3CC[C@]2(C)[C@@]1(OC(C)=O)C(C)=O | 0.0
* Cc1ccc(N)c([N+](=O)[O-])c1 | 0.0

Hi team, can someone confirm the assay call for "C=CN1CCCC1=O" ?
0.0

// next record "ClC/C=C/CCl"
0.0

// next record "C/C=C/C(=O)N(CC)c1ccccc1C"
1.0

// next record "CCCCCCCCCCCCCO"
0.0

----------
Experiment: qHTS assay to identify small molecule antagonists of the constitutive androstane receptor (CAR) signaling pathway - cell viability counter screen (AID 1224837); also: nearly all actives have a fitted effect of over 45% in size
Details: HepG2-CYP2B6-hCAR viability, CellTiter-Fluor, 23 h, co-treated with 50 nM CITCO; series mostly up to 92.4 µM
Records with an inconclusive call do not appear. Calls of active or inactive are those of the source. Calls come from the whole dose curve; as a rule, active = well fitted cell-killing curve with a large enough effect in the repeat runs; inconclusive = weak or mixed curves, or effect the other way; inactive = flat fitted curve, though single readings scatter.
Endpoint: Potency

• CCCCCCCC/C=C\CCCCCCCC(=O)O = inactive
• CC(=O)O[C@]1(C(C)=O)CC[C@H]2[C@@H]3C=C(Cl)C4=CC(=O)CC[C@]4(C)[C@H]3CC[C@@]21C = inactive
• CCCCCCCCCCCCCO = inactive
• COC(=O)c1ccc(C)cc1 = inactive
• Nc1ccc2c(c1)C(=O)c1ccccc1C2=O = inactive
• NCCN = inactive
• CC/C(=C(/CC)c1ccc(O)cc1)c1ccc(O)cc1 = inactive
• CCCCCCC(C)O (stereo not given) = inactive

So what does the record say about Potency for "O=C1CCc2ccccc2O1" ?
inactive

// next record "NCCS(=O)(=O)O"
inactive

// next record "C=CCOC(=O)C(=C)C"
inactive

----------
Target: Cytochrome P450 1A2 (Homo sapiens)
Assay: Cytochrome P450 Family 1 Subfamily A Member 2 (CYP1A2) small molecule antagonists: luciferase reporter qHTS assay (AID 1671199); also: nearly all actives have a fitted effect of over 50% in size
Conditions: P450-Glo CYP1A2 enzyme, luciferin luminescence, 1 h; series mostly up to 115 µM
Records with an inconclusive call do not appear. Active and inactive are the calls of the source. Calls follow the shape of the dose curve; as a rule, active = well fitted inhibition curve with a large enough effect in the repeat runs; inconclusive = weak or mixed curves; inactive = no such curve, though single readings can be large or run the other way.
Select the correct class. Options are True (active), False (inactive) and nothing else.

* OC[C@H]1O[C@@H]2O[C@H]3[C@H](O)[C@@H](O)[C@@H](O[C@H]4[C@H](O)[C@@H](O)[C@@H](O[C@H]5[C@H](O)[C@@H](O)[C@@H](O[C@H]6[C@H](O)[C@@H](O)[C@@H](O[C@H]7[C@H](O)[C@@H](O)[C@@H](O[C@H]1[C@H](O)[C@H]2O)O[C@@H]7CO)O[C@@H]6CO)O[C@@H]5CO)O[C@@H]4CO)O[C@@H]3CO | False
* NCCN | False
* CC(C)=CCO | False
* Cc1ccc2c(c1)C(=O)OC2=O | False
* CCc1cccc2c3c([nH]c12)C(CC)(CC(=O)O)OCC3 (stereo not drawn) | False
* Cc1ccc(C(C)(C)C)c(O)c1 | True

Hi team, can someone confirm the assay call for "CCO[Si](CCCNC(N)=O)(OCC)OCC" ?
False

// next record "C[C@]12C=CC(=O)C=C1CC[C@H]1[C@@H]3C[C@@H](O)[C@](O)(C(=O)CO)[C@@]3(C)C[C@H](O)[C@@]12F"
False

// next record "IC(I)I"
True

// next record "CN(C)C"
False

// next record "C=C[Si](OCCOC)(OCCOC)OCCOC"
False

// next record FC(F)(F)C(Cl)Br (stereo not drawn)
False

// next record "CC(=O)[C@H]1CC[C@H]2[C@@H]3CC=C4C[C@@H](O)CC[C@]4(C)[C@H]3CC[C@]12C"
False
